Reported T/C values are given for each entry in this list.
- Test system: L1210 leukemia ip in BDF1 mice, survival T/C
- assay_protocol: NCI In Vivo Anticancer Drug Screen. Data for tumor model L1210 Leukemia (intraperitoneal) in B6D2F1 (BDF1) mice
- assay_conditions: endpoint: mean survival time; dose: 200.0 mg/kg/injection; schedule: Q04DX003 (ip); vehicle: saline with Tween-80; higher = longer survival
Inconclusive results and toxic doses are left out.

{"compound": "O=C1CC(c2ccccn2)=NN1c1ccccc1", "T/C": "94 % of control"}

Sample CC(=O)Nc1c(C)cc(Cl)cc1Cl — what was its T/C?
95 % of control

Sample CC(Oc1ccccc1)C(=O)NC(=S)Nc1ccc(Cl)cc1 (configuration not stated) — what was its T/C?
109 % of control

Sample CC(=O)NC1CCCCC1 — what was its T/C?
98 % of control

====

- Tested on: L1210 leukemia ip in BDF1 mice, survival T/C
- assay_protocol: NCI In Vivo Anticancer Drug Screen. Data for tumor model L1210 Leukemia (intraperitoneal) in B6D2F1 (BDF1) mice
- assay_conditions: endpoint: mean survival time; dose: 400.0 mg/kg/injection; schedule: Q04DX003 (ip); vehicle: other; higher = longer survival
Toxic doses and inconclusive results are not listed.
Reported T/C values are given for each entry in this list.

{"compound": "CCCC(C(O)c1ccc(OC)cc1)C(O)(C(F)(F)F)C(F)(F)F (centres undefined)", "T/C": "92 % of control"}
{"compound": "S=c1[nH]c2ccccc2s1", "T/C": "101 % of control"}
{"compound": "COc1cc2c3c(c1)-c1nc4ccccc4cc1CN3CCC2", "T/C": "97 % of control"}
{"compound": "O=[N+]([O-])c1cccc(Oc2ncccc2[N+](=O)[O-])c1", "T/C": "100 % of control"}
{"compound": "COC(=O)c1cc2nc(C(C)C)n(Cc3ccccc3)c2cc1C(=O)OC", "T/C": "105 % of control"}
{"compound": "CC(C)=CCC/C(C)=C/Cn1c(=O)cc[nH]c1=O", "T/C": "86 % of control"}

Sample CC(=O)C(C)(c1ccccc1)N(Cc1ccccc1)C(=O)c1ccccc1 (centres undefined) — what was its T/C?
92 % of control

Sample O=C(O)COc1ccc(Cl)cc1Cl (tested in a mixture with another compound) — what was its T/C?
115 % of control

Sample O=C(CSCC(=O)c1ccc(Br)cc1)c1ccc(Br)cc1 — what was its T/C?
86 % of control

====

- Test system: L1210 leukemia ip in BDF1 mice, survival T/C
- assay_protocol: NCI In Vivo Anticancer Drug Screen. Data for tumor model L1210 Leukemia (intraperitoneal) in B6D2F1 (BDF1) mice
- assay_conditions: endpoint: mean survival time; dose: 200.0 mg/kg/injection; schedule: Q01DX009 (ip); vehicle: saline with Tween-80; higher = longer survival
Toxic doses and inconclusive results are not listed.
Reported T/C values are given for each entry in this list.

{"molecule": "CC(=O)OC1CCC2(C)C(=CCC3C2CCC2(C)C(/C(C)=N/O)=CCC32)C1 (stereo unspecified)", "system_tested": "L1210 leukemia ip in BDF1 mice, survival T/C", "result": "100 % of control"}

Sample COC(=O)CCC(NC(=O)c1cccc(N(C)C=O)c1)C(=O)OC (stereo unspecified) — what was its T/C?
105 % of control

Sample COC(c1ccccc1)(c1ccccc1)C(C)O (stereo unspecified) — what was its T/C?
103 % of control

Sample O=C(CCCBr)Nc1ccc2ccccc2c1 — what was its T/C?
95 % of control

Sample CCCCC1(C2CCCC2)NC(C)(C)CC(C)O1 (stereo unspecified) — what was its T/C?
104 % of control

Sample Cc1cc(C)c(C(=O)O)c(C)c1 — what was its T/C?
94 % of control

====

- System: L1210 leukemia ip in BDF1 mice, survival T/C
- assay_protocol: NCI In Vivo Anticancer Drug Screen. Data for tumor model L1210 Leukemia (intraperitoneal) in B6D2F1 (BDF1) mice
- assay_conditions: endpoint: mean survival time; dose: 200.0 mg/kg/injection; schedule: Q04DX003 (ip); vehicle: Klucel (hydroxypropylcellulose) (HPC); higher = longer survival
Inconclusive results and toxic doses are left out.
Reported T/C values are given for each entry in this list.

{"molecule": "CC(C)N(C(=O)Nc1ccccc1Cl)c1ccccc1", "system_tested": "L1210 leukemia ip in BDF1 mice, survival T/C", "quantity": "T/C", "result": "100 % of control"}
{"molecule": "O=C(/C=C/c1ccccc1)c1ccccc1", "system_tested": "L1210 leukemia ip in BDF1 mice, survival T/C", "quantity": "T/C", "result": "104 % of control"}
{"molecule": "N#Cc1ccc2c(c1)Nc1ccccc1S2", "system_tested": "L1210 leukemia ip in BDF1 mice, survival T/C", "quantity": "T/C", "result": "92 % of control"}

Sample c1ccc2c3c(ccc2c1)CCC/C3=N\N=C1/CCCc2ccc3ccccc3c21 — what was its T/C?
98 % of control

Sample O=S1(=O)C(Cc2ccccc2)CCC1Cc1ccccc1 (stereo unspecified) — what was its T/C?
94 % of control

Sample CCOc1ccc(NC(=S)NC(=O)c2ccco2)cc1 — what was its T/C?
94 % of control

Sample COc1ccc(C2CCC(=O)CC2C(=O)O)cc1 (stereo unspecified) — what was its T/C?
98 % of control

Sample c1ccc(CN=C(c2ccccc2)c2ccccc2)cc1 — what was its T/C?
96 % of control

====

- Tested on: L1210 leukemia ip in BDF1 mice, survival T/C
- assay_protocol: NCI In Vivo Anticancer Drug Screen. Data for tumor model L1210 Leukemia (intraperitoneal) in B6D2F1 (BDF1) mice
- assay_conditions: endpoint: mean survival time; dose: 25.0 mg/kg/injection; schedule: Q04DX002 (ip); vehicle: saline; higher = longer survival
Toxic doses and inconclusive results are not listed.
quantity: T/C

Answered cases to consult:
{"compound": "CCCCCCNCCC[P+](c1ccccc1)(c1ccccc1)c1ccccc1", "T/C": "98 % of control"}
{"compound": "CS(N)(=O)=O", "T/C": "96 % of control"}
{"compound": "COC1=CC23CCN(C)C(CCc4cc(OC)c(OC)c(OC)c42)C3=CC1=O (stereo not drawn)", "T/C": "114 % of control"}
{"compound": "O=C1OC(=O)C(Br)=C1Br", "T/C": "101 % of control"}

Sample O=S(=O)(O)SCC1=NCCN1 — what was its T/C?
103 % of control

====

- System: L1210 leukemia ip in BDF1 mice, survival T/C
- assay_protocol: NCI In Vivo Anticancer Drug Screen. Data for tumor model L1210 Leukemia (intraperitoneal) in B6D2F1 (BDF1) mice
- assay_conditions: endpoint: mean survival time; dose: 200.0 mg/kg/injection; schedule: Q04DX003 (ip); vehicle: Klucel (hydroxypropylcellulose) (HPC); higher = longer survival
Toxic doses and inconclusive results are not listed.
Reported T/C values are given for each entry in this list.

Answered cases to consult:
{"compound": "N#CCN(CC#N)CCN(CC#N)CC#N", "result": "90 % of control"}
{"compound": "CCCCCCCCCCCCCCCOc1ccc(C)cc1", "result": "101 % of control"}
{"compound": "O=P(OCc1ccccc1)(OCc1ccccc1)C(Nc1ccccc1)c1ccccc1 (stereo unspecified)", "result": "94 % of control"}
{"compound": "COc1cccc(CNc2ccc(SC)cc2)c1OC", "result": "91 % of control"}
{"compound": "COc1ccc(C(=Nc2ccc(C)cc2)c2ccccc2)cc1", "result": "98 % of control"}

Now, please, on to the next compound.
Sample COC(=O)C(C)NC(=O)CNC(=O)CNC(=O)OCc1ccccc1 (stereo unspecified) — what was its T/C?
100 % of control

====

- Tested on: L1210 leukemia ip in BDF1 mice, survival T/C
- assay_protocol: NCI In Vivo Anticancer Drug Screen. Data for tumor model L1210 Leukemia (intraperitoneal) in B6D2F1 (BDF1) mice
- assay_conditions: endpoint: mean survival time; dose: 100.0 mg/kg/injection; schedule: Q01DX009 (ip); vehicle: other; higher = longer survival
Toxic doses and inconclusive results are not listed.
quantity: T/C

Answered cases to consult:
{"compound": "CC(CC(=O)c1ccccc1)C(C(=O)c1ccccc1)c1ccccc1 (stereo unspecified)", "quantity": "T/C", "result": "101 % of control"}
{"compound": "CN(Cc1cnc2cc(N)nc(N)c2n1)c1ccc(C(=O)O)cc1", "quantity": "T/C", "result": "101 % of control"}
{"compound": "CC1(c2cccc([N+](=O)[O-])c2)OCCO1", "quantity": "T/C", "result": "100 % of control"}
{"compound": "COC(=O)c1c(O)cc(OC)cc1OC", "quantity": "T/C", "result": "108 % of control"}

Sample CCOC(=O)/C=C/c1c(OC)cc(OC)cc1OC — what was its T/C?
97 % of control

Sample COC(=O)c1ccccc1N=NN(C)C1CCCCC1 — what was its T/C?
106 % of control

Origin of the recorded values: PubChem BioAssay AID248
